- study-target: MKNK1 (Homo sapiens, UniProt Q9BUB5, T385D)
- Construct: GST (N); purchased Carna Biosciences 02-145; host or cells: insect cells (baculovirus expression system)
- Sequence (Q9BUB5 1-424 isoform Q9BUB5-2 T344D): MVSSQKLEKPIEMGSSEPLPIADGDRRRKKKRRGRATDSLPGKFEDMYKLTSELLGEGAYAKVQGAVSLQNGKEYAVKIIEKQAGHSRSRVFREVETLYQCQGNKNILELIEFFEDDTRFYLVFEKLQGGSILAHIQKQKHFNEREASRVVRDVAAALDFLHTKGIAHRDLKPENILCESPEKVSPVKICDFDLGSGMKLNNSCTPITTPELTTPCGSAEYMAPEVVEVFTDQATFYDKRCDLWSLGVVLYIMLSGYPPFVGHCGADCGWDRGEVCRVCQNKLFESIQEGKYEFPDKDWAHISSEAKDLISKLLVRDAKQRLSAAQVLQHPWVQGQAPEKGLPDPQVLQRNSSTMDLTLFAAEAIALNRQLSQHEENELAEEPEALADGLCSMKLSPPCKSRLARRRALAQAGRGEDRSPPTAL
- protocol: MKNK1 kinase assay (MKNK1 TR-FRET assay)
- Format: biochemical
- settings: Table 1c; 10 μM ATP, 15 min preincubation
pIC50: −log10 of the molar value.
measured-quantity: pIC50

query-smiles | study-target | pIC50
CCCN(CCOC)c1nccc2oc(-c3cnc4ccc(O[C@H](C)CN)nn34)cc12 | MKNK1 (Homo sapiens, UniProt Q9BUB5, T385D) | 8.96
C[C@H](N)COc1ccc2ncc(-c3cc4c(N5CCN(C(=O)OC(C)(C)C)CC5)nccc4o3)n2n1 | MKNK1 (Homo sapiens, UniProt Q9BUB5, T385D) | 7.51
CN(C)[C@@H]1CCN(c2nccc3oc(-c4cnc5ccc(O[C@H]6C[C@H](N)C6)nn45)cc23)C1 | MKNK1 (Homo sapiens, UniProt Q9BUB5, T385D) | 8.80
CCN(CCOC)c1nccc2oc(-c3cnc4ccc(OC[C@H]5COCCN5)nn34)cc12 | MKNK1 (Homo sapiens, UniProt Q9BUB5, T385D) | 9.30

P. CN(CCCO)c1nccc2oc(-c3cnc4ccc(OCCCS(C)(=O)=O)nn34)cc12
Q. CCN(CCOC)c1nccc2oc(-c3cnc4ccc(OC[C@H]5CNCC(=O)N5)nn34)cc12
Which shows the larger pIC50 value: P or Q ? State your choice using its label.
Q

a. C[C@@H]1CN(c2nccc3oc(-c4cnc5ccc(OC[C@H]6CCC(=O)N6)nn45)cc23)C[C@H](C)O1
b. N[C@H]1C[C@H](Oc2ccc3ncc(-c4cc5c(N6CCN(c7ccccc7)CC6)nccc5o4)n3n2)C1
Which shows the larger pIC50 value: a or b ? State your choice using its label.
a
(a: 9.00, b: 7.99)

* * *

- study-target: MKNK1 (Homo sapiens, UniProt Q9BUB5, T385D)
- Construct: GST (N); purchased Carna Biosciences 02-145; host or cells: insect cells (baculovirus expression system)
- protocol: MKNK1 kinase assay (MKNK1 TR-FRET assay)
- Assay type: biochemical
- settings: Table 1b; 10 μM ATP, 15 min preincubation
measured-quantity: IC50 (nM)

compound | IC50, nM
C[C@@H](N)COc1ccc2ncc(-c3cc4c(N5CCO[C@@H](C)C5)cccc4o3)n2n1 [II-76] | 6.9

1. C[C@H]1CNCCN1c1cccc2oc(-c3cnc4ccc(OC[C@H]5CCC(=O)N5)nn34)cc12 [II-30]
2. N[C@H]1C[C@H](Oc2ccc3ncc(-c4cc5c(N6CCOCC6)cccc5o4)n3n2)C1 [II-4]
// returns 1 or 2 , whichever has the lower IC50 State your choice using its label.
1
(1: 2.3 nM, 2: 18 nM)

P. CS(=O)(=O)CCCOc1ccc2ncc(-c3cc4c(N5CCNCC5)cccc4o3)n2n1 [II-20]
Q. C[C@H]1CN(c2cccc3oc(-c4cnc5ccc(O[C@H]6C[C@H](N)C6)nn45)cc23)CCO1 [II-43]
Which shows the larger IC50 value: P or Q ? State your choice using its label.
Q
(Q: 21.7 nM, P: 0.5 nM)

P. CCN(CCOC)c1cccc2oc(-c3cnc4ccc(OC[C@H](C)N)nn34)cc12 [II-24]
Q. CC1(C)CN(c2cccc3oc(-c4cnc5ccc(OC[C@H]6CCC(=O)N6)nn45)cc23)CCN1 [II-46]
R. COC[C@H]1CCCN1c1cccc2oc(-c3cnc4ccc(OC[C@@H]5CNCC(=O)N5)nn34)cc12 [II-47]
Ordering criterion: IC50; begin with the maximum. Lab note: record answer as labels in requested order.
R, P, Q
